# PROCEDURE DETAILS: TLR3 IRF3 reporter activation blockers – cell-based, poly I:C stimulus, luciferase, 10K MLSCN set, primary screen (AID 602277)
# CONDITION: HEK293-TLR3 RL24 IRF3 luciferase reporter, at 10 µM, stronger effect = higher value
If the reported inhibition equals or exceeds 20%, assign label 1. If not, assign label 0.

Confirm if inhibition reported for the compound CCOP(=O)(c1ccc(N(C)C)cc1)C(O)c1ccccc1OC (stereo unspecified) is 20% or above.
label 0

Confirm if inhibition reported for the compound CN(C)CC(C(=O)c1ccccc1)c1ccccc1 (stereo unspecified) is 20% or above.
label 1

Confirm if inhibition reported for the compound O=C(NCCCN1CCCC1=O)c1ccc2c(c1)NC(=O)C(N1CCOCC1)S2 (stereo unspecified) is 20% or above.
label 0

Confirm if inhibition reported for the compound CCOc1ccc(NC(=O)CC2NCCNC2=O)cc1 (stereo unspecified) is 20% or above.
label 0

Confirm if inhibition reported for the compound CCCCCn1c(CCNC(=O)CCC)nc2ccccc21 is 20% or above.
label 1

Confirm if inhibition reported for the compound O=C(Nc1ccc(OC(=O)c2ccco2)cc1)c1ccco1 is 20% or above.
label 0

* * *

Would you kindly list nuclei count for each of these compounds?
# PROCEDURE DETAILS: reduction of polyQ htt aggregates in cells – imaging, exon1htt(103Q)mCFP cells, high-content imaging, primary screen (AID 483);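 note: compound exposure lasted 3 days before fixation; percent of the per-plate median nuclei count of sample wells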
# CONDITION: exon1htt(103Q)mCFP cell line, aggregate imaging, at 2 µM; measured here: cell count, toxicity
Supply the numeric figure in %, leaving out any unit text.

// lookup nuclei count for Cc1nc2c(-c3ccc(F)cc3)c(C)nn2c(C)c1CCC(=O)NC(C)CCc1ccco1 (stereo unspecified)
99.5

// lookup nuclei count for Cc1ccc(C(c2nnnn2CCC(C)C)N2CCN(C)CC2)cc1 (stereo unspecified)
73.1

// lookup nuclei count for Cc1nn(C)c(C)c1NC(=O)CCSc1nc(-c2ccco2)cc(C(F)(F)F)n1
108

// lookup nuclei count for CCOCC(=O)Nc1c(C(=O)Nc2ccc(OC)cc2OC)oc2ccccc12
93.9

// lookup nuclei count for Clc1ccc(Nc2ncnc3c2cnn3-c2ccccc2)cc1
95.2

// lookup nuclei count for CCCCc1noc2c1/C(=N\O)CC(c1ccccc1)C2 (stereo unspecified)
106

// lookup nuclei count for Cc1cc(NC(=O)CCOc2ccccc2)no1
113

// lookup nuclei count for CC1(C)CC(=O)C=C(Nc2ccc(OCC(F)(F)C(F)F)cc2)C1
110

// lookup nuclei count for C=CCn1c(CC#N)nnc1N1CCOCC1
116

// lookup nuclei count for COc1ccccc1OCC(=O)Nc1cccc(-c2nc3ccccc3o2)c1
61.8

// lookup nuclei count for CCCOc1ccc(S(=O)(=O)NCCCN2CCOCC2)c2ccccc12
106

* * *

# PROCEDURE DETAILS: blockers of RIG-like receptor reporter activation – cell-based, Sendai virus stimulus, luciferase, 10K MLSCN set, TLR/RLR signaling modifier project, primary screen (AID 602276);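 note: firefly luciferase from ISG56 promoter only with Renilla not read in this screen; 0% = Sendai virus plus DMSO and 100% = medium plus DMSO without virus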
# CONDITION: HEK293 RL24 IRF3 luciferase reporter, at 10 µM, stronger effect = higher value
Would you kindly list inhibition for each of these compounds?
Supply the numeric figure in %, leaving out any unit text.

// lookup inhibition for COc1ccc(S(=O)(=O)N2CCN(CC(=O)Nc3ccc(F)c(F)c3)CC2)cc1
22.7

// lookup inhibition for CCCCN(CCCC)CCn1cnc2c([nH]c3ccc(OC)cc32)c1=O
4.54

// lookup inhibition for COC(=O)CN1C(=O)CC(C)(C)S(=O)c2ccccc21 (stereo unspecified)
4.76

// lookup inhibition for COc1ccc(OC)c(Nc2nc(-c3sc(N)nc3C)cs2)c1
-4.79

// lookup inhibition for COc1ccc(CCNC(=O)c2cc3sc(Cl)cc3n2C)cc1OC
-15.3

// lookup inhibition for CCOc1cccc(C(=O)N(Cc2ccco2)C2CCS(=O)(=O)C2)c1 (stereo unspecified)
11.5

// lookup inhibition for O=C(NCC(=O)N(Cc1cccs1)C(C(=O)NC1CCCC1)c1ccncc1)c1ccco1 (stereo unspecified)
13.3

// lookup inhibition for CCOc1ccc2nc(NC(=O)C3CCCN(S(=O)(=O)c4c(C)noc4C)C3)sc2c1 (stereo unspecified)
-4.49

// lookup inhibition for COc1ccc(C)cc1NCc1cccc(OC)c1OC
-7.74

// lookup inhibition for O=C1c2ccccc2C(=O)N1C/C=C/CN1C(=O)c2ccccc2C1=O
23.3

// lookup inhibition for Cc1ccc(SC(C)c2nc(-c3ccccc3)no2)cc1 (stereo unspecified)
-11.7
